# credit: the supplement of paper PMC12406974

Test system: U2OS PTBP1-KO;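 note: FLICK assay: SYTOX Green fluorescence of dead cells tracked over time after drugging in 96-well plates, with total cell counts taken from Triton X-100 lysed wells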
Assay: maximum observed lethal fraction; higher = more cell death
Details: 0.00316 µM
The label depends only on maximum observed lethal fraction: criterion met if it is at least 0.1, criterion not met if it is smaller.

Look over these answered cases.
CC(C)C[C@H](NC(=O)[C@H](Cc1ccccc1)NC(=O)c1cnccn1)B(O)O = criterion met
Cc1c2oc3c(C)ccc(C(=O)N[C@@H]4C(=O)N[C@H](C(C)C)C(=O)N5CCC[C@H]5C(=O)N(C)CC(=O)N(C)[C@@H](C(C)C)C(=O)O[C@@H]4C)c3nc-2c(C(=O)N[C@@H]2C(=O)N[C@H](C(C)C)C(=O)N3CCC[C@H]3C(=O)N(C)CC(=O)N(C)[C@@H](C(C)C)C(=O)O[C@@H]2C)c(N)c1=O = criterion met
Cc1[nH]c2ccccc2c1CCNCc1ccc(/C=C/C(=O)NO)cc1 = criterion met

Check the entry CC(=O)[C@]1(O)Cc2c(O)c3c(c(O)c2[C@@H](O[C@H]2C[C@H](N)[C@H](O)[C@H](C)O2)C1)C(=O)c1ccccc1C3=O : does maximum observed lethal fraction equal or exceed 0.1? criterion not met

Check the entry CC(C)[C@]12O[C@H]1[C@@H]1O[C@]13[C@]1(O[C@H]1C[C@H]1C4=C(CC[C@@]13C)C(=O)OC4)[C@@H]2O [Triptolide] : does maximum observed lethal fraction equal or exceed 0.1? criterion not met
